Data provenance: patent US20230084927A1

Parameter EC50: see the listing below.
Tested on: SDH-KO-HRAS cells (SDHB-deficient)
protocol-text: Cellular / differential toxicity assay (CellTiter-Glo, 3 days)
Format: cell-based, murine
condition-details: Mus musculus, 72 h, toxicity, SDH-KO cells, 3 days, CellTiter-Glo; read-out: EC50 (uM) SDH-KO-HTAS-C17

Field: example entries. Status: answers known.
compound	data-value
CC1(C)Cc2nc3sc4c(NCCc5ccc6[nH]cnc6c5)ncnc4c3c(COC3CCCCC3)c2CO1 [Compound 327]	< 1 µM
CC1(C)Cc2nc3sc4c(NCc5ccco5)ncnc4c3cc2CO1 [Compound 232]	> 10 µM
CC1(C)Cc2nc3sc4c(NCCc5ccncc5)ncnc4c3cc2CO1 [Compound 127]	> 10 µM

Given the entry CC1(C)Cc2nc3sc4c(NCCc5ccc(O)c([N+](=O)[O-])c5)ncnc4c3cc2CO1 [Compound 174] , report its measured EC50.
3 to 10 µM

What about this compound? CC1(C)Cc2nc3sc4c(NCCc5cccnc5)ncnc4c3cc2CO1 [Compound 124]
> 10 µM

Query CC1(C)Cc2nc3sc4c(NCCc5ccc6[nH]cnc6c5)ncnc4c3c(C(=O)OCCCCCCCCCCCCCCCC(=O)O)c2CO1 [Compound 211] next
3 to 10 µM

What would you report for CC1(C)Cc2nc3sc4c(NCc5ccccc5)ncnc4c3cc2CO1 [Compound 135] ?
> 10 µM

// next record COCCOCCOCCOCCOCCOC(=O)c1c2c(nc3sc4c(NCCc5ccc6[nH]cnc6c5)ncnc4c13)CC(C)(C)OC2 [Compound 163]
1 to 3 µM

Also COc1ccc(CCNc2ncnc3c2sc2nc4c(cc23)CCCC4)cc1F [Compound 109] , if possible.
> 10 µM

###

Test system: SDH-KO-HRAS cells (SDHB-deficient)
protocol-text: Cellular / differential toxicity assay (CellTiter-Glo, 3 days)
Assay type: cell-based, murine
condition-details: Mus musculus, 72 h, toxicity, SDH-KO cells, 3 days, CellTiter-Glo; read-out: EC50 (uM) SDH-KO-HTAS-C17
quantity-name: EC50

compound	data-value
CC1(C)Cc2nc3sc4c(NCCc5ccc6[nH]cnc6c5)ncnc4c3c(-c3cncs3)c2CO1 [Compound 318]	< 1 µM
CSc1c2c(nc3sc4c(NCCc5ccc6nc[nH]c6c5)ncnc4c13)CC(C)(C)OC2 [Compound 167]	< 1 µM
OC1CCc2nc3sc4c(NCCc5ccc6[nH]cnc6c5)ncnc4c3cc2C1 (stereo not drawn) [Compound 169]	< 1 µM
Cc1nc(N2CCCC2)c2sc3nc4c(cc3c2n1)COC(C)(C)C4 [Compound 268]	> 10 µM

Quick check: EC50 of CCCCN(CC)c1nc(C)nc2c1sc1nc3c(cc12)COC(C)(C)C3 [Compound 269] ?
> 10 µM

And for COCCCNc1ncnc2c1sc1nc3c(cc12)COC(C)(C)C3 [Compound 281] ?
3 to 10 µM

Request: Cc1nc(NCCc2ccc3[nH]cnc3c2)c2sc3ncccc3c2n1 [Compound 309]
3 to 10 µM

Try this compound next: Cc1nc(NCCN(C)C)c2sc3nc4c(cc3c2n1)COC(C)(C)C4 [Compound 225]
> 10 µM

Further, for CC1(C)Cc2nc3sc4c(NCCc5ccc(NC(=O)C(F)(F)F)c(F)c5)ncnc4c3cc2CO1 [Compound 200] ?
1 to 3 µM

Field entry: Cc1nc(NCc2ccc(OC(C)C)cc2)c2sc3nc4c(cc3c2n1)COC(C)(C)C4 [Compound 235]
> 10 µM

// next record COc1ccc(CCNc2ncnc3c2sc2ncccc23)cc1F [Compound 110]
1 to 3 µM

Also check CC1CCN(c2ncnc3c2sc2nc4c(cc23)COC(C)(C)C4)CC1 [Compound 245]
> 10 µM

Likewise for COc1cccc(OC)c1CCNc1ncnc2c1sc1nc3c(cc12)COC(C)(C)C3 [Compound 162] ?
< 1 µM

Please answer likewise for CC1(C)Cc2nc3sc4c(NCCc5cccc(C(=O)O)c5)ncnc4c3cc2CO1 [Compound 113]
3 to 10 µM

# repeat for COC(=O)c1ccc(CCNc2ncnc3c2sc2nc4c(cc23)COC(C)(C)C4)cc1 [Compound 130]
> 10 µM
